- System name: Casein kinase II subunit alpha (Homo sapiens);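 also: reported value is the mean CK2 inhibition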
- Assay conditions: at 1 µM
Decision: inhibition compared against 5%; not below it gives yes, below it gives no.

| Smiles | Cat |
| --- | --- |
| CNC(=O)c1cncc(/C=C/c2c(C)cccc2C)c1 | yes |
| C/C(Nc1ccc(S(N)(=O)=O)cc1)=C1/C(=O)Nc2ccccc21 | yes |
| COc1cccc(/C=N/Nc2ncnc3c2cnn3-c2cccc(OC)c2)c1 | no |
| COc1ccc2cc(-c3c(-c4ccncc4)nc(-c4ccc(S(C)(=O)=O)cc4C)n3C)ccc2c1 | no |
| Fc1ccc(-c2c(-c3ccncc3)nc3n2CCS3)cc1 | no |
| CS(=O)(=O)CCNCc1ccc(-c2ccc3ncnc(Nc4ccc(OCc5ccccc5)c(Br)c4)c3c2)o1 | yes |
| NS(=O)(=O)c1ccc(N/N=C2\C(=O)Nc3ccc(-c4cnco4)cc32)cc1 | yes |

###

- System name: Ephrin type-A receptor 3 (Homo sapiens) (UniProt P29320);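 also: mean inhibition value reported from the GSK PKIS kinase profiling screen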
- Sequence (whole entry): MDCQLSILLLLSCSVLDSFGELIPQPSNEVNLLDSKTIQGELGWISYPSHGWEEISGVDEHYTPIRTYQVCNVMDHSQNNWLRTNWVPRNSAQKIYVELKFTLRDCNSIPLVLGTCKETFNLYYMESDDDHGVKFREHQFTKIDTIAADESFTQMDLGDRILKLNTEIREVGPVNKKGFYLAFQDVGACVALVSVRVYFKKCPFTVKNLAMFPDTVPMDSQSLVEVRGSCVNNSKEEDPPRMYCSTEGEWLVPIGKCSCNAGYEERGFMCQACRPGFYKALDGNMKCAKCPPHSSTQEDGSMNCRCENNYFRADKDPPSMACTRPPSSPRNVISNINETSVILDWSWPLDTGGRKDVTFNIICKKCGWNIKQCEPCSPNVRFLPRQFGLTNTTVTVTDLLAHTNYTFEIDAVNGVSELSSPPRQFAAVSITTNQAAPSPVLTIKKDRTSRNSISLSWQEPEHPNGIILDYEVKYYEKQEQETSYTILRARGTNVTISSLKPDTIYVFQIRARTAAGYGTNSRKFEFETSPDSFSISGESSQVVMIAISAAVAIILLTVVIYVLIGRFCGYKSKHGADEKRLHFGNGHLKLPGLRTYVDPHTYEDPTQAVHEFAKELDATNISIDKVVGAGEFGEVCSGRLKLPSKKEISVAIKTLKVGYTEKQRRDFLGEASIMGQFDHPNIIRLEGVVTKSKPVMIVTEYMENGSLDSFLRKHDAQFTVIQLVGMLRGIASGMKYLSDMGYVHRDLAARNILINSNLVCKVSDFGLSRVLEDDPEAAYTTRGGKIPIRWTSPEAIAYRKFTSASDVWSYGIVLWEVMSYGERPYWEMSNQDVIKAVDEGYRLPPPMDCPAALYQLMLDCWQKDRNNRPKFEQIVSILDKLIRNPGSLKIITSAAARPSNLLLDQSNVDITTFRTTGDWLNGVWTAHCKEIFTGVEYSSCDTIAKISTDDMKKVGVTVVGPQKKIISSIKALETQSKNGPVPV
- Assay conditions: at 1 µM

| Smiles | System name | Quantity unit | inhibition |
| --- | --- | --- | --- |
| Cc1ccc(NC(=O)c2ccoc2)cc1-c1ccc(C(=O)NCC2CC2)cc1 | Ephrin type-A receptor 3 (Homo sapiens) (UniProt P29320) | % | 2.02 |
| CCc1ccc(Oc2nccc(-c3c(-c4ccc(F)cc4)ncn3C3CCNCC3)n2)cc1 | Ephrin type-A receptor 3 (Homo sapiens) (UniProt P29320) | % | 4.67 |
| COc1cccc(-n2cnc3c(N/N=C/c4ccncc4)ncnc32)c1 | Ephrin type-A receptor 3 (Homo sapiens) (UniProt P29320) | % | -0.79 |
| N#Cc1ccc(Oc2nccc(-c3c(-c4ccc(F)cc4)ncn3C3CCNCC3)n2)cc1 | Ephrin type-A receptor 3 (Homo sapiens) (UniProt P29320) | % | 3.63 |
| C#Cc1cccc(Nc2ncnc3ccc(OCCCCNCCS(C)(=O)=O)cc23)c1 | Ephrin type-A receptor 3 (Homo sapiens) (UniProt P29320) | % | 5.15 |
| NC(=O)c1cc(-c2ccc(F)cc2)cc(-c2ccncc2)c1N | Ephrin type-A receptor 3 (Homo sapiens) (UniProt P29320) | % | 2.83 |
| O=C1Nc2ccccc2/C1=C/Nc1ccc(-n2cncn2)cc1 | Ephrin type-A receptor 3 (Homo sapiens) (UniProt P29320) | % | 4.04 |
| Clc1ccc(CNc2nccc(-c3cnn4ncccc34)n2)cc1 | Ephrin type-A receptor 3 (Homo sapiens) (UniProt P29320) | % | 3.84 |
| CN(c1ccc(NC(=O)Nc2c(Cl)cccc2Cl)cc1)c1ccnc(Nc2cccc(CS(C)(=O)=O)c2)n1 | Ephrin type-A receptor 3 (Homo sapiens) (UniProt P29320) | % | 7.13 |
| O=C(Nc1n[nH]c2nc(-c3ccc(O)cc3)c(Br)cc12)C1CC1 | Ephrin type-A receptor 3 (Homo sapiens) (UniProt P29320) | % | 14 |
